- protocol description: yeast display, Sf9 membrane polyspecificity reagent, FACS + sequencing; frameworks hold sequencing errors
endpoint label: polyreactivity (PSR sort gate)

QVQLVESGGGLFQAGGSLRLSCAASGSIFRYYAMGWYRQAPGKERELVARISWRGGSTYADSVKGRFTISRDNAKNTVYLQMNSLKPEDTAVYYCAGVLAVGSYDYWGQGTQVTVSS ... low polyreactivity
QVQIVESGGGLVQAGGSLRLRCAASGITFSIYAMGWYRQAPGKERELVAAIDSGGGTNYADSVKGRFTISLDNAKNTVYLQMNSLKAEDTAVYYCAADFLKVDWYDYWGQGTQVTVSS ... low polyreactivity

====

- protocol description: yeast display, Sf9 membrane polyspecificity reagent, FACS + sequencing; frameworks hold sequencing errors
endpoint label: polyreactivity (PSR sort gate)

QVQLVESGGGLVQAGGSLRLSCAASGRIFPSYAMGWYRQAPGKERELVAAISSSGGRTYYADSVKGRFTISRDNAKNTVYLQKNSLKPEDTAVYYCNARSPAYFYQWLYSFRYDYWGQGTQVTVSS ... high polyreactivity
QVQLVESGGGLVQAGGSLRLSCAASGFIFRWYAMGWYRQAPGKERELVAANSSGSSTTYADSVKGRFTISRDNAKNTVYLQMNSLKPEDTAVYYCNRGPRIYRYQYDYWGQGTQVTVSS ... high polyreactivity

====

- protocol description: yeast display, Sf9 membrane polyspecificity reagent, FACS + sequencing; frameworks hold sequencing errors
endpoint label: polyreactivity (PSR sort gate)

QVQLVESGGGLVQAGGSLRLSCAASGSTFRYYTMGWYRQAPGKERELVAAITWSGGSTYYADSVKGRFTISRDNAKNTVNLQMNSLKPEDTEVYYCNKEDVGSSESDYWGQGTQVTVSS ... high polyreactivity
QVQLVESGGGLVQAGGSLRISCAASGRILGKYAMGWYRQAPGKESELVAAIRLRGGSTYYADSVKGRFTISRDNEKNSVYLQMNSLKPEDTAVYYCAARYWDRSQAYNDWGQGTQVTVSS ... high polyreactivity

====

- protocol description: yeast display, Sf9 membrane polyspecificity reagent, FACS + sequencing; frameworks hold sequencing errors
endpoint label: polyreactivity (PSR sort gate)

Known polyreactivity (PSR sort gate) results, listed for orientation:
QVQLVESGGGLVQAGGSLRLSCAASGSTFGVNAMGWYRQAPGKERELVAAISWSGGSTYYADSVKGRFTISRDNAKNTVYLQMNSLKPEDTAVYYCAADFDYGIWGRYEYWGQGTQVTVSS ... high polyreactivity
QGQLVESGGGLVQAGGSLRLSCAASGSIFDLNAMGWYRQAPGKERELVAAISTGGGTYYADSVKGRFTISRDTAKNTVYLQMNRLKPEDTAVYYCNRVTRWTYNYWGQGTQVTVSS ... high polyreactivity
QVQLVESGGGLVQAGGSLRLSCAASGSTFTNYAMGWYRQAPGKERELVAAITSGGSTYYADSVKGRFTISRDNAKNTVYLQMNSLKPEDTAVYYCNAVYFSEYDSWGQGTQVTVSS ... low polyreactivity
QVQLVESGGGLVQAGGSLRLSCAASGRIFKRYAMGWYRQAPGKERELVAAIRTSDGITYYADSVKGRFTISRDNAKNTVYLQMNSLKPEDTAVYYCNADLSKAERWGQGTQVTVSS ... low polyreactivity
QVQLVESAGGLVQAGGSLRLSCAASGSNFKYYAMGWYRQAPGKERELVAAINGSGGSTYYADSVKGRFTISRDNAKNTVYLQMNSLKPEDTAVYYCARASDYNKVSKSQRMDYWGQGTQVTVSS ... high polyreactivity

Find the recorded polyreactivity (PSR sort gate) belonging to "QVQLQESGGGLVKAGGSLRLSCAASGYLILQYAMGWYRPAPGKERELVASIARGTSTYYADSVKGRFTISRDNAKNTVYLQMNSLKPEDTAVYYCAVIYSWGLWHDYWGQGTQVTVSS" and report it.
high polyreactivity

Follow-up entry: "QVQLVESGGGLVQAGGSLRLSCAASGSIFSSYSMGWYRQAPGKERELVAAIDGSGGSTYADSVKGRFTISRDNAKNTVYLQMNSLKPEDTAVYYCAVDSFLVYSAVRPYDYWGHGTQVTVSS"
low polyreactivity

Follow-up entry: "QVQLVESGGGLVQAGGSLRLSCAASGRTFLGYAMGWYRQAPGKERELVAAITSGTRTYADSVKGRFTISRDNAKYTVYLQMNSLKPEDTAVYYCAALRWQYRLYSYSFRSGRFDYWGQGTQVTVSS"
low polyreactivity

Follow-up entry: "QVQLVESRGGLVQAGGSLRLSCAASGSIFNYNAMGCYRQAPGKEREFVAAINQGGTSTYYADSVKGRFTISRDNANHTVYLQMNSLKPEDTAVYYCAALITVYRGSYEYCGQGTQVTVSS"
low polyreactivity

Follow-up entry: "QVHHVESGGGLVQAGGSLRLSCAASGITFSSYAMGWYRQAPRKERELVAAISYGGGNTYYADSVKGRFTISRDNAKNTVYLQMNSLKPEDTAVYYCNTLYTSYSGLDYWGQGTQVTVSS"
high polyreactivity

Follow-up entry: "QVQLVESGGGLVQAGGSLRISCAASGSTFYPNAMGWYRPAPGTERELVAAIRGTGGSTYADSVKGRFTISRDNAKNTVYLQMNSLKPEDTAVYYCAAAGWTYRVEKYSVRLTGYDYWGQGTQVTVSS"
high polyreactivity
